Reported XC50 values follow for various compounds
# Test system: Plasmodium falciparum
# assay-protocol: GSK_TCMDC: Inhibition of Plasmodium falciparum 3D7 in whole erythrocytes, using parasite LDH activity as an index of growth.
# Type: functional, organism-based
# condition-notes: Plasmodium falciparum, 3D7
Enter your answer as a number in nM; do not include the unit.

These solved cases illustrate the format of a correct answer.
CC(C)(C)c1ccc(CN2CCC(CNC(=O)c3cc(-c4ccccc4Cl)cs3)C2)cc1 (centres undefined) = 856
Cc1noc(C)c1CN1CCCN(c2ccc3c(c2)CCN(Cc2ccc(-c4ncc[nH]4)cc2)CC3)CC1 = 864
CCCNC[C@@H](O)[C@H](Cc1ccccc1)NC(=O)c1cc(NCC)cc(N2CCCC2=O)c1 = 760

So, Cc1ccc(S(=O)(=O)NC2=NC(=N)N(OCc3ccc(Cl)c(Cl)c3)C(C)(C)N2)cc1 ? Its XC50 was 1140

So, Clc1ccc(CNc2nc(NCCc3c[nH]cn3)nc(NC3CCCCC3)n2)cc1 ? Its XC50 was 209
